Target: human CRF receptors (Homo sapiens, UniProt P34998)
Construct: expressed in transfected cells
Sequence (P34998 24-415): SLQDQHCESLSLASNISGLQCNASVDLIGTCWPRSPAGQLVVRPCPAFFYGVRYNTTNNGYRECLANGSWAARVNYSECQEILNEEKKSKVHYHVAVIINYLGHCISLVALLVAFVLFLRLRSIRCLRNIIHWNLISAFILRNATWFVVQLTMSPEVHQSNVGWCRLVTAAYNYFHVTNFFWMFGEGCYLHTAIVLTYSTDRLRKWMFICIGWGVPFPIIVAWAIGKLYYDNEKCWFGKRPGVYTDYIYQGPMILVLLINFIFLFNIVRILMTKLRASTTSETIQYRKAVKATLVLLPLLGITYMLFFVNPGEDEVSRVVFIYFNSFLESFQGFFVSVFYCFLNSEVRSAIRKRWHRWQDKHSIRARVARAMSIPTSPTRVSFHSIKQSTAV
Assay: CRF receptor binding activity (radioligand displacement, Example 25)
Description: The effectiveness of a compound as a CRF receptor antagonist may be determined by various assay methods. […] CRF receptor affinity may be determined by binding studies that measure the ability of a compound to inhibit the binding of a radiolabeled CRF (e.g., [^125I]tyrosine-CFR) to its receptor (e.g., receptors prepared from rat cerebral cortex membranes). […]
Readings of Ki for the listed compounds

Worked cases, answers included:
| compound | reported-result |
| --- | --- |
| COc1ccc(-c2c(C)nn3c(N[C@H](C)Cc4noc(C)n4)cc(C)nc23)c(C)c1 [Example 17-1] | < 100 nM |
| COc1ccc(-c2c(C)nn3c(N[C@H](C)Cc4nc(C)no4)cc(C)nc23)c(C)c1 [Example 11-10] | < 100 nM |
| CCN(Cc1nc(C)no1)c1cc(C)nc2c(-c3ccc(OC)cc3C)c(C)nn12 [Example 20-1] | < 100 nM |
| CCC(Nc1cc(C)nc2c(-c3ccc(OC)cc3OC)c(C)nn12)c1nc(C)no1 (stereo not shown) [Example 11-20] | < 100 nM |
| COc1ccc(-c2c(C)nn3c(NCc4nc(C)no4)cc(C)nc23)c(C)c1 [Example 11-6] | < 100 nM |

# get_value(readout='Ki', item= COc1ccc(-c2c(C)nn3c(NC(C)Cc4nc(C)no4)cc(C)nc23)c(C)c1 (stereo not shown) [Example 12-1] )
< 100 nM

# get_value(readout='Ki', item= CCC(Nc1cc(C)nc2c(-c3ccc(OC)cc3C)c(C)nn12)c1nnc(C)o1 (stereo not shown) [Example 22-1] )
< 100 nM

The values you see were collected from patent US7879862B2.
